Please go through the items and note down their apparent KD of MS2 coat protein.
Test system: MS2 coat protein
ASSAY OVERVIEW: apparent KD of MS2 coat protein; higher = weaker reporter binding
CONDITION LABEL: Eterna round: R107; input ligand: arginine 13.2 mM
# output: bare number, implied unit nM

Q. Please report apparent KD of MS2 coat protein for the following sequence: ACAUUGCGCUCGGCCGCCACUGGCUAUAGAUUUAUAGCAUUAAUGAACAUGAGGAUCACCCAUGUCAGGACCGGGAGCGAACCAU [SSTryp B #8]
A. 12.1

Q. State its apparent KD of MS2 coat protein: ACACAUGAGGAUCAUCCAUGUGCCCAUGAAGGAGCGUGGGAAACCACAGGUAGGUCGCAUGACAUGAGGAUCACCCAUGUUUAUU [#03 Exclusion - Arginine A]
A. 66.6

Q. Return the recorded apparent KD of MS2 coat protein value; entry: GCCUCAUGUAGAAGGAGCGUCAGAAGCUACAGACAUGAGGAUCACCCAUGUUAGUUGAUCUGACAGGUAGGUCGCUACAGCAGGA [Arg B SS t7]
A. 26.7

Q. Supply measured apparent KD of MS2 coat protein of CUCAUCCACGCGGCCGCCACUAUAUUGUGGUGCGAAUGUGUCGUAAUACAUGAGGAUCACCCAUGUAGGACCGGGCGUGGAUGAG [#09 Exclusion Tryptophan B] in your reply.
A. 10.3

Q. Return value of apparent KD of MS2 coat protein for input ACGGAUCGGAAACGAUCCGCGGCGAGGGUGCGAGGACCGGUACGGCCGCCACUCGGCUAACAUGAGGAUCACCCAUGUCCGAAGA [ETA NuPACK+Vienna+Vienna2 #9] , no commentary.
A. 43.6

The reported measurements were obtained from the supplement of paper PMC9170038.
